So I've got a bunch of compounds here, and I need their Ratio Ki values.
Species: Homo sapiens
Experiment: Selectivity ratio of Ki for mu opioid receptor (unknown origin) to Ki for kappa opioid receptor (unknown origin)

Problem: // query Ratio Ki value for entry CCOC(=O)/C=C/C(=O)O[C@H]1C[C@@H](C(=O)OC)[C@]2(C)CC[C@H]3C(=O)O[C@H](c4ccoc4)C[C@]3(C)[C@H]2C1=O
Result: 2

Problem: // query Ratio Ki value for entry COC(=O)[C@@H]1C[C@H](OC(=O)/C=C\C(=O)O)C(=O)[C@H]2[C@@]1(C)CC[C@H]1C(=O)O[C@H](c3ccoc3)C[C@]21C
Result: 1

Problem: // query Ratio Ki value for entry COC(=O)CCCC(=O)O[C@H]1C[C@@H](C(=O)OC)[C@]2(C)CC[C@H]3C(=O)O[C@H](c4ccoc4)C[C@]3(C)[C@H]2C1=O
Result: 16

Problem: // query Ratio Ki value for entry COC(=O)[C@@H]1C[C@H](OC(=O)CCCC(=O)O)C(=O)[C@H]2[C@@]1(C)CC[C@H]1C(=O)O[C@H](c3ccoc3)C[C@]21C
Result: 17

Problem: // query Ratio Ki value for entry COC(=O)/C=C/C(=O)O[C@H]1C[C@@H](C(=O)OC)[C@]2(C)CC[C@H]3C(=O)O[C@H](c4ccoc4)C[C@]3(C)[C@H]2C1=O
Result: 18

====

So I've got a bunch of molecules here, and I need their Ratio Ki values.
Organism: Homo sapiens
Assay: Selectivity ratio of Ki for delta opioid receptor (unknown origin) to Ki for kappa opioid receptor (unknown origin)

Problem: // query Ratio Ki value for entry CCOC(=O)CCC(=O)O[C@H]1C[C@@H](C(=O)OC)[C@]2(C)CC[C@H]3C(=O)O[C@H](c4ccoc4)C[C@]3(C)[C@H]2C1=O
Result: > 23

Problem: // query Ratio Ki value for entry COC(=O)[C@@H]1C[C@H](OC(=O)CCCC(=O)O)C(=O)[C@H]2[C@@]1(C)CC[C@H]1C(=O)O[C@H](c3ccoc3)C[C@]21C
Result: > 38

Problem: // query Ratio Ki value for entry CCOC(=O)CC(=O)O[C@H]1C[C@@H](C(=O)OC)[C@]2(C)CC[C@H]3C(=O)O[C@H](c4ccoc4)C[C@]3(C)[C@H]2C1=O [ETHYLSALVINORINB-2-O-MALONATE]
Result: > 476

====

So I've got a bunch of compounds here, and I need their Ratio Ki values.
Species on record: Homo sapiens
Assay: Selectivity ratio of Ki for delta opioid receptor (unknown origin) to Ki for kappa opioid receptor (unknown origin)

Problem: // query Ratio Ki value for entry COC(=O)[C@@H]1C[C@H](OC(=O)c2ccccc2C(=O)O)C(=O)[C@H]2[C@@]1(C)CC[C@H]1C(=O)O[C@H](c3ccoc3)C[C@]21C
Result: > 4

Problem: // query Ratio Ki value for entry COC(=O)CCCC(=O)O[C@H]1C[C@@H](C(=O)OC)[C@]2(C)CC[C@H]3C(=O)O[C@H](c4ccoc4)C[C@]3(C)[C@H]2C1=O
Result: > 33

Problem: // query Ratio Ki value for entry CCOC(=O)/C=C/C(=O)O[C@H]1C[C@@H](C(=O)OC)[C@]2(C)CC[C@H]3C(=O)O[C@H](c4ccoc4)C[C@]3(C)[C@H]2C1=O
Result: > 23

====

Target: Delta-type opioid receptor (Homo sapiens, UniProt P41143)
Sequence (P41143 whole entry): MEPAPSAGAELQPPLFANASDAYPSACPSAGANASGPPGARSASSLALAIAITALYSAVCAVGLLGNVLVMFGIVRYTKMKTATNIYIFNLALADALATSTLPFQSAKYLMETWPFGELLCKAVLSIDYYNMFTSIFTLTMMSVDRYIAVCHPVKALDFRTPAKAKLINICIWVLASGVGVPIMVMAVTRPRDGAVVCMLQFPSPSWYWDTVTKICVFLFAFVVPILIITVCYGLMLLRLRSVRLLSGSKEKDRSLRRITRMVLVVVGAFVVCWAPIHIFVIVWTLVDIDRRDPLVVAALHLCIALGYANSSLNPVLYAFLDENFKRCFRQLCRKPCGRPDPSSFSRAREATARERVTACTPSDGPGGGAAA
Test: Displacement of [3H]DADLE from delta opioid receptor (unknown origin)
observationType: Ki

Problem: // query Ki value for entry COC(=O)[C@@H]1C[C@H](OC(=O)c2ccccc2C(=O)O)C(=O)[C@H]2[C@@]1(C)CC[C@H]1C(=O)O[C@H](c3ccoc3)C[C@]21C
Result: > 10 µM

Problem: // query Ki value for entry COC(=O)CC(=O)O[C@H]1C[C@@H](C(=O)OC)[C@]2(C)CC[C@H]3C(=O)O[C@H](c4ccoc4)C[C@]3(C)[C@H]2C1=O
Result: 4.32 µM

Problem: // query Ki value for entry COC(=O)[C@@H]1C[C@H](OC(=O)CSC#N)C(=O)[C@H]2[C@@]1(C)CC[C@H]1C(=O)O[C@H](c3ccoc3)C[C@]21C
Result: > 10 µM

Problem: // query Ki value for entry CCOC(=O)CCC(=O)O[C@H]1C[C@@H](C(=O)OC)[C@]2(C)CC[C@H]3C(=O)O[C@H](c4ccoc4)C[C@]3(C)[C@H]2C1=O
Result: > 10 µM

Problem: // query Ki value for entry COC(=O)[C@@H]1C[C@H](OC(=O)CCCC(=O)O)C(=O)[C@H]2[C@@]1(C)CC[C@H]1C(=O)O[C@H](c3ccoc3)C[C@]21C
Result: > 10 µM

Problem: // query Ki value for entry COC(=O)[C@@H]1C[C@H](O)C(=O)[C@H]2[C@@]1(C)CC[C@H]1C(=O)O[C@H](c3ccoc3)C[C@]21C
Result: > 10 µM
